MEASURED_PROPERTY: logP

>>> df
                                   compound  experimental_value
0  CC(=O)n1cc(CC(NC(=O)CC2NC(=O)C3C4CCC(CC4)N3C2=O)C(=O)NC(Cc2ccccc2)C(=O)N(C)Cc2ccccc2)c2ccccc21 (stereo not drawn)                3.69
1  CN(Cc1ccccc1)C(=O)C(Cc1ccccc1)NC(=O)C(Cc1cn(C(=O)CCCCCCN)c2ccccc12)NC(=O)CC1NC(=O)C2C3CCC(CC3)N2C1=O (stereo not drawn)                2.48
2  CN(Cc1ccccc1)C(=O)C(Cc1ccccc1)NC(=O)C(Cc1c[nH]c2ccccc12)NC(=O)CC1NC(=O)C2C3CCC(CC3)N2C1=O (stereo not drawn)                3.18
